- testedSystem: Farnesyl-protein transferase (Bos taurus, UniProt P29702+P49355)
- Construct: Farnesyl-protein transferase from bovine brain
- testProtocol: Inhibition of Ras farnesylation in vitro by farnesyl-protein transferase (FTase)
- measurementParameters: partially purified bovine brain FTase; Ras-CVLS 3.5 μM, [3H]FPP 0.25 μM; averages of 2-5 determinations
pIC50: −log10 of the molar value.
readoutName: pIC50

compound=CC(C)=CCC/C(C)=C/CC/C(C)=C/CCSCP(=O)(O)O readoutname=pIC50 endpointresult=4.00

1: CC(C)=CCC/C(C)=C/CC/C(C)=C/CCC(O)CP(=O)(O)O (stereo not drawn)
2: CC(C)=CCC/C(C)=C/CC/C(C)=C/CCC(=O)CP(=O)(O)O
3: CC(=O)C(C/C=C(\C)CC/C=C(\C)CCC=C(C)C)P(=O)(O)O (stereo not drawn)
4: CC(C)=CCC/C(C)=C/CC/C(C)=C/CNC(=O)CP(=O)(O)O
5: CC(C)=CCC/C(C)=C/CC/C(C)=C/CCC(O)CC(=O)O (stereo not drawn)
Rank entries according to their pIC50, from the largest number down. Give your ranking as a list of the labels in the requested order. 4, 3, 2, 1, 5
(4: 7.36, 3: 4.68, 2: 4.21, 1: 4.00, 5: 3.51)
